experimental_system: FPR1 (Homo sapiens, UniProt P21462)
Sequence (P21462 whole entry): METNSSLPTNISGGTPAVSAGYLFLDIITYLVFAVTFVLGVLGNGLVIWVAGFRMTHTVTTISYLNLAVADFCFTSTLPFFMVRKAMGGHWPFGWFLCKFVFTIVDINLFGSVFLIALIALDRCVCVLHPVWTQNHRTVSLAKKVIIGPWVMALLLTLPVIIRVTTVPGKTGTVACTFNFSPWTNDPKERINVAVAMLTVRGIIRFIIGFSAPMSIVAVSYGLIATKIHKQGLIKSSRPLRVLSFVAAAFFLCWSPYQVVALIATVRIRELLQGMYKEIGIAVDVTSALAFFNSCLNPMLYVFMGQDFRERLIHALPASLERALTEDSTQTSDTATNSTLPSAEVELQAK
assay_method_text: Ca2+ mobilization in FPR1-transfected HL60 cells
Format: cell-based
Listed here: items and their measured EC50.
measure: EC50 (nM)

[[record]]
compound = "COc1cccc(NC(=O)c2cc(-c3ccncc3)c(C)n(CC(=O)Nc3ccc(Br)cc3)c2=O)c1 [Compound 6c]"
experimental_system = "FPR1 (Homo sapiens, UniProt P21462)"
measure = "EC50"
reading = 1400

[[record]]
compound = "COc1cccc(NC(=O)c2cc(C#N)c(=O)n(CC(=O)Nc3ccc(Br)cc3)c2C)c1 [Compound 9a]"
experimental_system = "FPR1 (Homo sapiens, UniProt P21462)"
measure = "EC50"
reading = 3900

[[record]]
compound = "COc1ccc(-c2cc(C#N)c(=O)n(CC(=O)Nc3ccc(Br)cc3)c2C)cc1 [Compound 2b]"
experimental_system = "FPR1 (Homo sapiens, UniProt P21462)"
measure = "EC50"
reading = 1000

[[record]]
compound = "COc1ccc(-c2cc(C#N)c(=O)n(CC(=O)Nc3ccc(Br)cc3)c2C)cc1OC [Compound 2c]"
experimental_system = "FPR1 (Homo sapiens, UniProt P21462)"
measure = "EC50"
reading = 33200


----------
experimental_system: FPR1 (Homo sapiens, UniProt P21462)
assay_method_text: Ca2+ mobilization in FPR1-transfected HL60 cells
Type: cell-based
settings: read-out: FPR1-HL60 EC50; Ca2+ mobilization; mean of three independent experiments; N.A. = no activity (efficacy < 20% and EC50 < 50 μM as printed)
pEC50: −log10 of the molar value.
measure: pEC50

[[record]]
sample_smiles = "CCOC(=O)c1cc(C#N)c(=O)n(CC(=O)Nc2ccc(Br)cc2)c1C"
reading = 5.52


----------
experimental_system: UniProtKB P21462
assay_method_text: Ca2+ mobilization in FPR1-transfected HL60 cells
Assay type: cell-based
measure: EC50

[[record]]
compound = "CCCn1ccc(=O)n(CC(=O)Nc2ccc(Br)cc2)c1=O [Compound 11d]"
measure = "EC50"
reading = "5.5 µM"

[[record]]
compound = "CCOC(=O)c1cc(C(=O)Nc2cccc(OC)c2)c(=O)n(CC(=O)Nc2ccc(Br)cc2)c1C"
measure = "EC50"
reading = "0.4 µM"

[[record]]
compound = "COc1ccc(NC(=O)c2cc(C#N)c(=O)n(CC(=O)Nc3ccc(Br)cc3)c2C)cc1"
measure = "EC50"
reading = "0.96 µM"

[[record]]
compound = "CCOC(=O)c1cc(C(=O)Nc2ccc(OC)cc2)c(=O)n(CC(=O)Nc2ccc(Br)cc2)c1C"
measure = "EC50"
reading = "7.9 µM"

